experiment: Quantitative High-Throughput drug screen in 47 multiple myeloma cell lines against the NCATS MIPE library collection: Delta47_JCRB cell viability assay (AID 1918925; also: nearly all actives have a fitted effect of over 45% in size; also: potency is read from the fitted curve at half-maximal effect); settings: Delta47 myeloma viability, CellTiter-Glo ATP, 48 h; series mostly up to 45.8 µM
Results filed as inconclusive are left out. Calls of active or inactive are those of the source. Calls follow the shape of the dose curve; as a rule, active = well fitted cell-killing curve with a large enough effect; inconclusive = small, poorly fitted or top-dose-only effect, or effect the other way; inactive = no such curve, though single readings can be large or run the other way.
MEASURED_ENDPOINT: Potency

Reference set, count: 10
compound=N=C(N=C(N)N)N1CCOCC1 result=inactive
compound=O=c1ccc2ccc(O)c(O)c2o1 result="6.62 µM (active)"
compound=CS(=O)(=O)OCCCCOS(C)(=O)=O result=inactive
compound=Cc1ccc(C)c(OCCCC(C)(C)C(=O)O)c1 result="16.6 µM (active)"
compound=COC(=O)N[C@H](C(=O)N[C@@H](Cc1ccccc1)[C@@H](O)CN(Cc1ccc(-c2ccccn2)cc1)NC(=O)[C@@H](NC(=O)OC)C(C)(C)C)C(C)(C)C result=inactive
compound=O=P(O)(O)C(O)(Cn1ccnc1)P(=O)(O)O result=inactive
compound="COCCCOc1ccnc(CS(=O)c2nc3ccccc3[nH]2)c1C (stereo unspecified)" result=inactive
compound=CC[C@]1(O)C[C@H]2CN(CCc3c([nH]c4ccccc34)[C@@](C(=O)OC)(c3cc4c(cc3OC)N(C=O)[C@H]3[C@@](O)(C(=O)OC)[C@H](OC(C)=O)[C@]5(CC)C=CCN6CC[C@]43[C@@H]65)C2)C1 result="0.0047 µM (active)"
compound=O=Nc1c(-c2c(O)[nH]c3cc(Br)ccc23)[nH]c2ccccc12 result="5.9 µM (active)"
compound="Nc1ccn([C@@H]2O[C@H](CO)[C@@H](O)C2O)c(=O)n1 (stereo partly specified)" result=inactive

# input for lookup
Sure, the documented Potency for Cc1ccc(NC(=O)c2ccc(CN3CCN(C)CC3)cc2)cc1Nc1nccc(-c2cccnc2)n1 is 20.9 µM (active)

* * *

biological target: Thyrotropin-releasing hormone receptor (Homo sapiens) (UniProt P34981); assay: qHTS for Small Molecule Agonists and Allosteric Enhancers of Human TRH Receptor: Validation Screen for Agonists (AID 493127); conditions: TRH receptor agonist cell assay; at 2 µM; hits give high values;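 also: intracellular calcium rise by fluo-8 fluorescence before TRH EC20 addition; 0% is about no effect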
Sequence (P34981 whole entry, looked up): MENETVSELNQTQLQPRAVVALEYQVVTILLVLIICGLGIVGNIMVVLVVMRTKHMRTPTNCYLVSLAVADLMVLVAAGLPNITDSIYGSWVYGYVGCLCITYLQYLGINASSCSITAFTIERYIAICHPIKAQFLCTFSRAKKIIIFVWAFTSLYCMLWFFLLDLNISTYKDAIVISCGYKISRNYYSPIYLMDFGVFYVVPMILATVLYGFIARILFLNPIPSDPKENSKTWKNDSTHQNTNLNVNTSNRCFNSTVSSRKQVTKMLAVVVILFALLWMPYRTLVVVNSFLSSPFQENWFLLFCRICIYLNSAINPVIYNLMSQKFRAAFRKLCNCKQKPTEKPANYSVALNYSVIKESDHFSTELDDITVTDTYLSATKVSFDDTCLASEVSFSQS
MEASURED_ENDPOINT: activation (%)
Lab book: enter the figure in %, no units written.

Reference set, count: 8
molecule="Cc1c(OCC(F)(F)F)ccnc1CS(=O)c1nc2ccccc2[nH]1 (stereo unspecified)" result_number=4.38
molecule=CCN(CC)C(=S)SSC(=S)N(CC)CC result_number=4
molecule=O=c1ccc2ccc(O)c(O)c2o1 result_number=-0.188
molecule=O=c1cc(N2CCOCC2)oc2c(-c3ccccc3)cccc12 result_number=-3.19
molecule="C[C@@H](N)C1CCC(C(=O)Nc2ccncc2)CC1 (stereo partly specified)" result_number=1.06
molecule=O=c1c(O)c(-c2ccc(O)cc2O)oc2cc(O)cc(O)c12 result_number=0.938
molecule="CC(=O)O[C@H]1C(=O)[C@@]2(C)C([C@H](OC(=O)c3ccccc3)[C@]3(O)C[C@H](OC(=O)[C@H](O)[C@@H](NC(=O)c4ccccc4)c4ccccc4)C(C)=C1C3(C)C)[C@]1(OC(C)=O)CO[C@@H]1C[C@@H]2O (stereo partly specified)" result_number=0.562
molecule=O=C1c2ccccc2-c2n[nH]c3cccc1c23 result_number=0.75

# input for lookup
Short answer on Thyrotropin-releasing hormone receptor (Homo sapiens) (UniProt P34981) for O=c1c(O)c(-c2cc(O)c(O)c(O)c2)oc2cc(O)cc(O)c12 , activation: 1.38

Entry source: PubChem BioAssay (NCATS)
